- study-target: Serine/threonine-protein kinase MARK2 (Homo sapiens)
- experimental-conditions: at 1 µM
- Description: GSK_PKIS: PAR-1Balpha mean inhibition at 1 uM [Nanosyn]

| molecule | study-target | inhibition, % |
| --- | --- | --- |
| COc1cc2ncn(-c3cc(OCCc4ccccc4)c(C(N)=O)s3)c2cc1OC | Serine/threonine-protein kinase MARK2 (Homo sapiens) | 2.11 |
| COC(=O)Nc1nc2ccc(Sc3ccc(NC(=O)Nc4cc(C(F)(F)F)ccc4F)cc3)cc2[nH]1 | Serine/threonine-protein kinase MARK2 (Homo sapiens) | -0.67 |
| Fc1ccc(-c2ncn(CCCN3CCOCC3)c2-c2ccncc2)cc1 | Serine/threonine-protein kinase MARK2 (Homo sapiens) | 2.44 |
| COc1ccc2cc(-c3c(-c4ccncc4)nc(-c4ccc(S(C)(=O)=O)cc4C)n3C)ccc2c1 | Serine/threonine-protein kinase MARK2 (Homo sapiens) | 1.75 |
| Fc1ccc(-c2c(-c3ccncc3)nc3n2CCS3)cc1 | Serine/threonine-protein kinase MARK2 (Homo sapiens) | 1.79 |
| COc1ccc2cc(-c3c(-c4ccncc4)nc(-c4ccc([S+](C)[O-])cc4C)n3C)ccc2c1 (stereo not given) | Serine/threonine-protein kinase MARK2 (Homo sapiens) | -1.74 |
| COc1ccc(C2=C(N3CCc4ccccc43)C(=O)NC2=O)cc1 | Serine/threonine-protein kinase MARK2 (Homo sapiens) | 1.74 |
| COc1cc(Nc2ncc3c(C)nc(-c4cccc(C(F)(F)F)c4)n3n2)cc(OC)c1OC | Serine/threonine-protein kinase MARK2 (Homo sapiens) | 3.54 |
| Fc1ccc(-c2ncn(C3CCNCC3)c2-c2ccnc(Oc3ccc(Oc4ccccc4)cc3)n2)cc1 | Serine/threonine-protein kinase MARK2 (Homo sapiens) | 4.07 |
| C[C@@H](Oc1cc(-n2cnc3ccc(OC4CCN(C)CC4)cc32)sc1C(N)=O)c1ccccc1Cl | Serine/threonine-protein kinase MARK2 (Homo sapiens) | 9.93 |
| Cc1ccc(NC(=O)c2ccoc2)cc1-c1ccc(C(=O)NCC2CC2)cc1 | Serine/threonine-protein kinase MARK2 (Homo sapiens) | -0.97 |
| C#Cc1cccc(Nc2ncnc3ccc(OCCCCNCCS(C)(=O)=O)cc23)c1 | Serine/threonine-protein kinase MARK2 (Homo sapiens) | 2.74 |
| O=C1NC(=O)C(c2cccc(Cl)c2)=C1Nc1ccc(Cl)c(C(=O)O)c1 | Serine/threonine-protein kinase MARK2 (Homo sapiens) | 0.4 |
| NS(=O)(=O)c1ccc(Nc2cc(-c3ccc(O)c(F)c3)n[nH]2)cc1 | Serine/threonine-protein kinase MARK2 (Homo sapiens) | 7.38 |
| NCc1ccc(-n2c(-c3nonc3N)nc3cnccc32)cc1 | Serine/threonine-protein kinase MARK2 (Homo sapiens) | 23.4 |
| CN(c1ccc(NC(=O)Nc2c(Cl)cccc2Cl)cc1)c1ccnc(Nc2cccc(CS(C)(=O)=O)c2)n1 | Serine/threonine-protein kinase MARK2 (Homo sapiens) | 2.99 |
| c1ccc(Oc2ccc(Nc3ncc(-c4ccccc4)o3)cc2)cc1 | Serine/threonine-protein kinase MARK2 (Homo sapiens) | 0.42 |
| O=C(Nc1n[nH]c2cc(-c3ccccc3)ccc12)C1CC1 | Serine/threonine-protein kinase MARK2 (Homo sapiens) | 3.6 |
| COc1cc(C)c(N(C)C(=O)CN(C)C)cc1Nc1nc(Nc2cccc(F)c2C(N)=O)c2cc[nH]c2n1 | Serine/threonine-protein kinase MARK2 (Homo sapiens) | 1.79 |
| Fc1ccc(-c2nc3n(c2-c2ccncc2)CCS3)cc1 | Serine/threonine-protein kinase MARK2 (Homo sapiens) | 1.88 |
| O=C1Nc2ccc(I)cc2C1=Cc1cc(Br)c(O)c(Br)c1 | Serine/threonine-protein kinase MARK2 (Homo sapiens) | 2.16 |
| NS(=O)(=O)c1ccc(N/N=C2\C(=O)Nc3ccc(C(=O)NCCCn4ccnc4)cc32)cc1 | Serine/threonine-protein kinase MARK2 (Homo sapiens) | 9.93 |
| CNC(=O)c1cncc(/C=C/c2c(C)cccc2C)c1 | Serine/threonine-protein kinase MARK2 (Homo sapiens) | 0.9 |
| COc1cc(Nc2ncc(-c3ccccc3)o2)cc(OC)c1OC | Serine/threonine-protein kinase MARK2 (Homo sapiens) | 15.6 |
| CS(=O)(=O)CCNCc1cc(-c2cc3c(Nc4ccc(OCc5cccc(F)c5)c(Cl)c4)ncnc3s2)cs1 | Serine/threonine-protein kinase MARK2 (Homo sapiens) | 0.65 |
| CN(C)CCOc1ccc(-c2cc(-c3ccc4c(c3)CCC4=NO)c(-c3ccncc3)o2)cc1 | Serine/threonine-protein kinase MARK2 (Homo sapiens) | 0.33 |
| NC(=O)c1cc(-c2ccc(F)cc2)cc(-c2ccncc2)c1N | Serine/threonine-protein kinase MARK2 (Homo sapiens) | -0.63 |
| CCc1ccc(Oc2nccc(-c3c(-c4ccc(F)cc4)ncn3C3CCNCC3)n2)cc1 | Serine/threonine-protein kinase MARK2 (Homo sapiens) | 4.62 |
| NS(=O)(=O)c1ccc(N/N=C2\C(=O)Nc3ccc(-c4cnco4)cc32)cc1 | Serine/threonine-protein kinase MARK2 (Homo sapiens) | 16.6 |
| CCC(=O)Nc1ccc(C)c(-c2ccc(C(=O)NCC3CC3)cc2)c1 | Serine/threonine-protein kinase MARK2 (Homo sapiens) | 1.92 |
| O=C(Nc1ccc(Oc2ccc3[nH]c(NC(=O)c4ccccc4)nc3c2)cc1)Nc1cc(C(F)(F)F)ccc1F | Serine/threonine-protein kinase MARK2 (Homo sapiens) | 1.49 |
| C[C@@H](Oc1cc(-n2cnc3ccc(OCC4CCN(C)CC4)cc32)sc1C(N)=O)c1ccccc1Cl | Serine/threonine-protein kinase MARK2 (Homo sapiens) | 19.7 |
| O=C(NCC1CC1)c1ccc(-c2cccc(C(=O)NC3CC3)c2)cc1 | Serine/threonine-protein kinase MARK2 (Homo sapiens) | 1.08 |
| N#Cc1ccc(Oc2nccc(-c3c(-c4ccc(F)cc4)ncn3C3CCNCC3)n2)cc1 | Serine/threonine-protein kinase MARK2 (Homo sapiens) | -1.45 |
| NC(=O)Cc1ccccc1Oc1nccc(-c2c(-c3ccc(F)cc3)ncn2C2CCNCC2)n1 | Serine/threonine-protein kinase MARK2 (Homo sapiens) | 2.22 |
| COc1cc(N2CCN(C(C)C)CC2)ccc1Nc1nc(Nc2ccc(F)cc2C(=O)NC[C@@H](O)CO)c2cc[nH]c2n1 | Serine/threonine-protein kinase MARK2 (Homo sapiens) | 1.35 |
| COc1ccc(-c2ccc3c(NC(=O)C4CC4)n[nH]c3n2)cc1 | Serine/threonine-protein kinase MARK2 (Homo sapiens) | -0.61 |
| NC(=O)c1cc(-c2ccncc2)cc(-c2ccccc2)c1N | Serine/threonine-protein kinase MARK2 (Homo sapiens) | 4.3 |
| Nc1nccc(-c2c(-c3ccc(F)cc3)ncn2C2CCC(O)CC2)n1 (stereo not given) | Serine/threonine-protein kinase MARK2 (Homo sapiens) | 2.02 |
| COc1cc(Nc2ncc3c(C)nc(-c4cccc(Oc5ccccc5)c4)n3n2)cc(OC)c1OC | Serine/threonine-protein kinase MARK2 (Homo sapiens) | 5.64 |
